// pEC50 lookup, one value per entry
- Tested on: Human immunodeficiency virus 1
- EXPERIMENT SUMMARY: Antiviral activity against HIV1 3B infected in human MT4 cells assessed as reduction in virus-induced cytopathic effect by measuring number of syncytia after 3 days by inverted microscopic method
- Assay type: functional, organism-based
- EXPERIMENTAL SETUP: Human immunodeficiency virus 1, 3B, MT4, 72 h
pEC50: −log10 of the molar value.
PARAMETER: pEC50

* CC(=O)[C@]1(C)CC[C@@H](C)[C@](C)(CC/C(C)=C/C(=O)O)[C@H]1CC(=O)O | 4.91
* CC1=C(C(=O)O)C[C@@H]2[C@@](C)(CC/C(=C/C(=O)O)CO)[C@H](C)CC[C@@]12C | 4.64
* C/C(=C\C(=O)O)CC[C@@]1(C)[C@H](C)CC[C@]2(C)[C@@H]1CC[C@@H](O)[C@]2(C)O | 4.56
* CC1=CC(=O)C[C@@H]2[C@@](C)(CC/C(=C\C(=O)O)C(=O)O)[C@H](C)CC[C@@]12C | 4.45
